- System: rodent lifetime carcinogenesis bioassay, tumor incidence TD50
- experimentDescription: carcinogenic potency in animals, long-term in vivo studies, CPDB compilation (AID 1745844)
- conditionDetails: mouse; strain B6C3F1; females; in feed; site: ovary; lesion: mixed tumor, benign; dosed 103 weeks; study length 105 weeks
property: TD50

[in] Return reported TD50; argument: O=C1CN(N=Cc2ccc([N+](=O)[O-])o2)C(=O)N1
[out] 3380 mg/kg/day

----------
- Test system: rodent lifetime carcinogenesis bioassay, tumor incidence TD50
- experimentDescription: carcinogenic potency in animals, long-term in vivo studies, CPDB compilation (AID 1745844)
- conditionDetails: rat; strain Fischer 344; males; in drinking water; site: lung; lesion: alveolar/bronchiolar adenoma; dosed 58 weeks; study length 60 weeks
property: TD50 (mg/kg/day)
Numbers only, in mg/kg/day.

[in] Could you share which TD50 value was measured for Cc1cc(-c2ccc(N)c(C)c2)ccc1N ?
[out] 5.47
